Assay: qHTS for induction of synthetic lethality in tumor cells producing 2HG: qHTS for the HT-1080-NT fibrosarcoma cell line;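 note: NT is the 2HG producing partner of a matched IDH1 knockdown line; nearly all actives have a fitted effect of over 55% in size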; note: potency is the fitted concentration of half-maximal effect
Conditions: HT-1080-NT fibrosarcoma viability, CellTiter-Glo ATP luminescence, 48 h; series mostly up to 46.1 µM
About 6,000 (1.7%) of roughly 360,000 compounds were called active. About 8% were inconclusive and are not listed. The sample holds actives, similar compounds and a random draw of the others, so the mix is not that of the screen.

compound	Potency
N#CCSc1nc(-c2ccccc2)nc2ccc(F)cc12	inactive
COc1ccc(Cc2nnc(NC(=O)Cc3cccs3)s2)cc1	inactive
CN(NC(=O)c1ccccc1F)c1nc(C(F)(F)F)nc2ccccc12	0.291 µM (active)
Cc1[nH]n(C)c(=O)c1C(=O)c1c(-c2c(Cl)cccc2Cl)noc1C	20.6 µM (active)
COc1ccc(CC(N)c2csc(NC(=O)NC(c3ccccc3)c3ccccc3)n2)cc1 (centres undefined)	23.1 µM (active)
CC(NC(=O)c1ccccc1F)c1cccc2ccccc12 (centres undefined)	inactive
COc1cccc(CNc2nc(C(F)(F)F)nc3ccccc23)c1	23.1 µM (active)
O=C(Nc1ccc(Cl)cc1)Nc1nnc(/C=C/c2ccccc2)s1	inactive
COc1ccc(C(=O)NN(C)c2nc(-c3ccccc3)cc(C)c2S(C)(=O)=O)cc1	inactive
NCCCCC(C(=O)O)N(C(=O)OCc1ccccc1)C(=O)OCc1ccccc1 (centres undefined)	inactive
CC(=O)c1ccccc1NC(=O)COC(=O)C1COc2ccccc2O1 (centres undefined)	inactive
CCCCN(CCCC)CC(O)Cn1c2ccccc2c(=O)c2ccccc21 (centres undefined)	inactive
COc1ccc(CNC(=O)C(Cc2ccccc2)n2cccc2)cc1 (centres undefined)	inactive
CSc1nc(N(C)NC(=O)c2cccc(C)c2)c2ccccc2n1	0.13 µM (active)
COC(=O)C1(C(=O)OC)C[C@H](c2ccccc2)N(Cc2ccccc2OC)[C@@H]1c1ccccc1	inactive
CN(C)C(CNC(=O)c1cc2ccccc2o1)c1ccccc1 (centres undefined)	inactive
O=C(Nc1nnc(SCc2ccccc2Cl)s1)c1cccc([N+](=O)[O-])c1	18.4 µM (active)
COCCn1c(SCC(=O)Nc2ccc(F)cc2F)nc2c(c1=O)SCC2	inactive
O=C(NCc1ccccc1)c1ccc(S(=O)(=O)Nc2cccc(C(F)(F)F)c2)cc1	inactive
CCc1ccc(C(CNc2nc(C(F)(F)F)nc3ccccc23)N(C)C)cc1 (centres undefined)	23.1 µM (active)
COCCNc1ncnc2c1ncn2[C@H]1CN(CCN2CCOCC2)C[C@@H](CO)O1	inactive
O=C(OCc1cn([C@@H]2C[C@H](c3ccc(Cl)cc3)N(Cc3cccs3)C[C@H]2O)nn1)c1ccccc1	inactive
C[C@@H]1CN([C@@H](C)CO)S(=O)(=O)c2ccc(C#Cc3cccc(F)c3)cc2O[C@H]1CN(C)S(=O)(=O)c1cn(C)cn1	inactive
COC(=O)CSC1=C(C#N)C(c2ccccc2OC)C(C(=O)OC)C(=O)N1 (centres undefined)	inactive
CN(/N=C/c1ccccc1)C(=S)c1ccccc1	inactive
Cn1c(CC(=O)NNC(=O)c2ccccc2F)nc2ccccc21	inactive
NC(=O)CSc1nnc(NC(=O)c2ccc3ccccc3c2)s1	inactive
CCOCc1nnc(NC(=O)CSc2ccc(C)cc2)s1	inactive
Cc1ccc(CNC(=O)Nc2nnc([C@H]3C[C@H](O)[C@@H](CO)O3)s2)cc1	inactive
Oc1ccc(-c2onc3ccc(Cl)cc23)cc1	inactive
CCCCNC(=O)OC1CC2CC1[C@H]1CCCCN1C2=O (some centres undefined)	inactive
Oc1ccc(/C=N/N(Cc2ccccc2)c2ccccc2)cc1	20.6 µM (active)
O=C(COc1ccc(S(=O)(=O)Nc2cccc(C(F)(F)F)c2)cc1)N1CCOCC1	inactive
CNc1cnc(-c2cc(OC)c(OC)c(OC)c2)cn1	inactive
Cc1onc(-c2c(Cl)cccc2Cl)c1C(=O)NNC(=O)c1c(-c2c(Cl)cccc2Cl)noc1C	inactive
CCOC(=O)CSC1=C(C#N)C(c2sccc2C)CC(=O)N1 (centres undefined)	2.51 µM (active)
COc1ccc(OC)c(NC(=O)N[C@H](Cc2ccccc2)C(=O)NN)c1	inactive
CC(=O)Nc1cccc(Nc2ccc(C#N)cc2)c1	inactive
CC(C)(C)CC(=O)Nc1nc(C(N)Cc2ccc(C(F)(F)F)cc2)cs1 (centres undefined)	16.4 µM (active)
CC1(C(=O)NS(=O)(=O)c2cccc(F)c2)CCN1C(=O)Cc1cc(F)ccc1F (centres undefined)	inactive
COC(=O)[C@]12CCCCC=C1N(Cc1ccco1)C(=O)[C@H](CC(=O)NCC1CCCCC1)C2	inactive
O=C(CSc1ccccc1)Nc1nnc(/C=C/c2ccccc2)s1	23.1 µM (active)
Clc1ccc2nc(-c3ccccc3)nc(C(Cl)Cl)c2c1	4.61 µM (active)
COc1ccc(C(O)c2nc(-c3ccc4c(c3)OCO4)cs2)cc1 (centres undefined)	inactive
